Measured values drawn from patent EP2042600A1 for this set.

target: DRB1*1301 (Homo sapiens, UniProt P01903+P01911, A100E/A169T/K41T/L162R/M171V/P40S/Q125H/Q178H/Q39Y/Q99D/R42S/S66N/T262R/W38E/Y61H)
test_protocol: HLA-DR peptide-binding assay (competitive ELISA), DR13
test_context: reference peptide (unlabeled form of the biotinylated tracer)
No end group written: not given here.
attribute_measured: IC50 (nM)
Kindly answer with a numeric value in nM, unit omitted.

Consider the sequence TERVRLVTRHIYNREE [B1 21-36] and give its measured IC50.
203
